Let's go through some pIC50 measurements on NA of CIV-41915 (Influenza A virus, UniProt A0A0H3YBU9) together.
pIC50 field: float, defined as -log10 of concentration (mol/L).

Entry CCC(CC)O[C@@H]1C=C(C(=O)O)C[C@H](N)[C@H]1NC(C)=O [Oseltamivir carboxylate, oseltamivir carboxylate] ; assay system NA of CIV-41915 (Influenza A virus, UniProt A0A0H3YBU9); pIC50 recorded at 9.89

Response field pIC50 (NA of CIV-41915 (Influenza A virus, UniProt A0A0H3YBU9)) for item CCC(CC)[C@H](NC(C)=O)[C@@H]1[C@H](O)[C@@H](C(=O)O)C[C@H]1N=C(N)N [Peramivir, peramivir] : 9.82
